// provenance: PubChem BioAssay

# run_description: binders from COS7 lysate, DM2A8 probe, primary screen, torsin A project, cell lysate, small-molecule microarray, fluorescence 635/667 (AID 1065)
# measurement_parameters: higher = more signal, COS7 lysate expressing mutant human TOR1A
measured_attribute: composite z-score

| compound | measured_attribute | readout_value |
| --- | --- | --- |
| CCOC(=O)CCN1C(=O)[C@H]2[C@H]3[C@H](O)[C@H](O)CC(=NNC(=O)OCc4ccccc4)[C@@H]3CC[C@H]2C1=O | composite z-score | 0.695 |
| CCCNC(=O)OC[C@H]1O[C@H](CCON=C(C)CCC(=O)OC[C@H]2O[C@H](c3ccccc3)C=C[C@@H]2Oc2ccc(OC)cc2)C=C[C@@H]1Oc1ccc(OC)cc1 | composite z-score | 0.21 |
| CCOC(=O)[C@H](Cc1ccccc1)NC(=O)CCC1CC(OC(=O)NCc2ccc3c(c2)OCO3)CC2(CCCC(COC(=O)NCCC(C)C)O2)O1 (some centres undefined) | composite z-score | 0.107 |
| O=C1C[C@@H](O)[C@@H](O)[C@@H]2[C@@H]3C(=O)N(Cc4ccc5c(c4)OCO5)C(=O)[C@@H]3CC[C@H]12 | composite z-score | 0.348 |
| COc1cccc([C@H]2Oc3ccc(OC)cc3C(=NOC[C@@H](O)[C@H]3O[C@@H]4OC(C)(C)O[C@@H]4[C@H]3O)[C@@H]2O)c1 | composite z-score | 0.146 |
| COC(=O)[C@H](C)NC(=O)CCC1CC(OC(=O)NCCc2ccc(F)cc2)CC2(CCCC(COC(=O)NCc3cccc(C(F)(F)F)c3)O2)O1 (some centres undefined) | composite z-score | 0.041 |
| CCCNC(=O)OC[C@H]1O[C@H](CCON=Cc2ccc(C(=O)N3[C@H](c4ccc(C)cc4)[C@@H](C)CC[C@H]3C(=O)OC)cc2)C=C[C@@H]1Oc1ccc(OC)cc1 | composite z-score | 0.304 |
| COc1ccc(O[C@@H]2[C@H](O)CO[C@H]2C=Cc2ccccc2)cc1 | composite z-score | 0.26 |
| CO[C@H]1COC(=O)[C@H](C)NC(=O)[C@@H](C)COC(=O)[C@H]2CCCN2C(=O)CC=C[C@H]1C | composite z-score | 1.06 |
| O=c1n(Cc2cc3c(cc2Cl)OCO3)c(=O)n2n1CC[C@@H]1C(=NOCc3ccccc3)[C@H]3O[C@H]3[C@@H](O)[C@@H]12 | composite z-score | 0.188 |
| O=C1C[C@@H](O)[C@@H](O)[C@@H]2[C@@H]3C(=O)N(C[C@@H]4CCCO4)C(=O)[C@@H]3CC[C@H]12 | composite z-score | 0.207 |
| C[C@H]1Cc2c(COc3ccccc3)nc3c(c2CO1)CN(CCOc1ccccc1)CC3 | composite z-score | 0.665 |
| CC(C)=CCCC(C)=CCON=C1C[C@@H](O)[C@@H](O)[C@@H]2[C@@H]3C(=O)N(C4CCCCC4)C(=O)[C@@H]3CC[C@@H]12 | composite z-score | 0.76 |
| COc1cccc([C@H]2Oc3ccc(OC)cc3C(=NOC(C)CN3CCCCc4nc(C)c(C)cc43)[C@@H]2O)c1 (some centres undefined) | composite z-score | -0.0173 |
| CO[C@H]1COC(=O)CC=C[C@H](C)[C@@H](OC)COC(=O)[C@@H](C)NC(=O)CC=C[C@@H]1C | composite z-score | 1.9 |
| CCOC(=O)[C@H](CC(C)C)NC(=O)CCC1CC(OC(=O)NCc2ccc3c(c2)OCO3)CC2(CCCC(COC(=O)NCC(c3ccccc3)c3ccccc3)O2)O1 (some centres undefined) | composite z-score | -0.168 |
| CCc1cc2c(nc1CC)CCN(CCC(C)=NO[C@H](C)c1cn([C@H](CO)Cc3ccccc3)nn1)C2 | composite z-score | 0.985 |
| C#CCCCON=C1C[C@@H](O)[C@@H](O)[C@@H]2[C@@H]3C(=O)N(c4ccc(F)cc4F)C(=O)[C@@H]3CC[C@H]12 | composite z-score | 0.872 |
| CCOC(=O)NN=C1C[C@@H](O)[C@@H](O)[C@@H]2[C@@H]3C(=O)N(Cc4ccc5c(c4)OCO5)C(=O)[C@@H]3CC[C@H]12 | composite z-score | 0.0687 |
| O=C1[C@H]2[C@H]3[C@H](O)[C@H](O)CC(=NO[C@@H]4O[C@H](CO)[C@@H](O)[C@H](O)[C@H]4O)[C@H]3CC[C@H]2C(=O)N1c1cccc(Oc2ccccc2)c1 | composite z-score | 0.128 |
| Cc1cc2c(c(=O)o1)[C@@H](O)[C@H]1O[C@H]1C2=O | composite z-score | 0.23 |
| CC(C)CON=C1C[C@@H](O)[C@@H](O)[C@@H]2[C@@H]3C(=O)N(C4CCCCC4)C(=O)[C@@H]3CC[C@H]12 | composite z-score | 0.6 |
| CC(C)=CCCC(C)=CCON=C1C[C@@H](O)[C@@H](O)[C@@H]2[C@@H]3C(=O)N(c4cccc(Oc5ccccc5)c4)C(=O)[C@@H]3CC[C@@H]12 | composite z-score | -0.314 |
| C#CCCCON=C1C[C@@H](O)[C@@H](O)[C@@H]2[C@@H]3C(=O)N(Cc4ccccc4)C(=O)[C@@H]3CC[C@@H]12 | composite z-score | 0.421 |
| CO[C@@H]1COC(=O)CC=C[C@H](C)[C@H](OC)COC(=O)[C@H](C)NC(=O)CC=C[C@H]1C | composite z-score | 1.42 |
| Cc1ccc(S(=O)(=O)N[C@H]2COC(=O)CC=C[C@@H](C)COC(=O)CC=C[C@@H]2C)cc1 | composite z-score | 0.604 |
| CCOC(=O)CCN1C(=O)[C@H]2[C@H]3[C@H](O)[C@H](O)CC(=NOCc4ccccc4)[C@H]3CC[C@H]2C1=O | composite z-score | -0.164 |
| CC(=O)OC[C@H]1O[C@H](C#Cc2ccccc2)C=C[C@@H]1OC(C)=O | composite z-score | -0.0613 |
| CCOC(=O)[C@H](CC(C)C)NC(=O)CCC1CC(OC(=O)NCc2ccc3c(c2)OCO3)CC2(CCCC(COC(=O)NCC3CCCCC3)O2)O1 (some centres undefined) | composite z-score | 1.06 |
